Assay: NCI Yeast Anticancer Drug Screen. Data for the rad50 strain (AID 155);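 also: 0% = growth of vehicle-only cultures of the same strain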
Settings: S. cerevisiae rad50 strain growth inhibition; at 100.0 µM; stronger effect = higher value
About 79,000 compounds went through this panel and 15% of them were active in at least one assay; those are over-represented in the sample as a whole.
MEASURED_QUANTITY: growth inhibition (%)
Your answer is read as %, so omit the unit and give the number.

Q. Reported growth inhibition for CCCCN(CCCC)c1ccc(N=Nc2ccc(S(=O)(=O)O)cc2)cc1 : what is it?
A. 93

Q. Reported growth inhibition for Cc1cc(Cl)ccc1NC(=O)/C(Cl)=C(/Cl)C(=O)O : what is it?
A. 99

Q. Reported growth inhibition for CC1CN(/N=C\c2ccc([N+](=O)[O-])o2)C(=O)O1 (centres undefined) : what is it?
A. 72

Q. Reported growth inhibition for c1c[nH]c(CN2CCN(Cc3ncc[nH]3)CC2)n1 : what is it?
A. 98

Q. Reported growth inhibition for O=C(C(Cl)=C(N1CCCCC1)N1CCCCC1)C(Cl)Cl : what is it?
A. 3

Q. Reported growth inhibition for CCCCCCCCCCCCCCCCCCN(C)C(COC)COP(=O)([O-])OCC[N+](C)(C)C (centres undefined) : what is it?
A. 98

Q. Reported growth inhibition for Clc1ccc(/C(=C\c2ccccc2)Cn2ccnc2)cc1 : what is it?
A. 85

Q. Reported growth inhibition for O=[N+]([O-])/C=C/c1cc2ccc3ccccc3c2[nH]1 : what is it?
A. 82

Q. Reported growth inhibition for N#CC1OB(O)c2ccccc21 (centres undefined) : what is it?
A. 11

Q. Reported growth inhibition for CC1=CN2C(c3ccccc3)=NON(c3ccc(C)cn3)C2C=C1 (centres undefined) : what is it?
A. -11

Q. Reported growth inhibition for c1ccc(-c2cc(C3CO3)c3ccccc3n2)cc1 (centres undefined) : what is it?
A. 98

Q. Reported growth inhibition for CC(C)S(=O)(=O)/C=C\S(=O)(=O)C(C)C : what is it?
A. 97

Q. Reported growth inhibition for CCC(OC(C)=O)C1CC(C(C)C)CCC1C (centres undefined) : what is it?
A. 53

Q. Reported growth inhibition for NC(=S)N1N=C2c3ccccc3CC[C@@H]2[C@@H]1c1ccccc1 : what is it?
A. 86

Q. Reported growth inhibition for COc1cc2c(cc1O)[C@H](C)C(c1ccccc1OC)O2 (some centres undefined) : what is it?
A. 96

Q. Reported growth inhibition for COC1=CCC23C(=O)C=CC(=O)C2(C1)C(=O)c1ccccc1C3=O (centres undefined) : what is it?
A. 87

Q. Reported growth inhibition for CCOC(=O)C(Cc1c2ccccc2cc2ccccc12)(NC(C)=O)C(=O)OCC : what is it?
A. -2

Q. Reported growth inhibition for CC(C)NCCCNc1c2ccccc2nc2cccc([N+](=O)[O-])c12 : what is it?
A. 97

Q. Reported growth inhibition for CCN(CC)CCCNc1ccc([N+](=O)[O-])c2nc3ccc(OC)cc3c(NCCCN(CC)CC)c12 : what is it?
A. 9

Q. Reported growth inhibition for O=[N+]([O-])c1ccc(/C=C\c2ccc3c(c2)OCO3)c([N+](=O)[O-])c1 : what is it?
A. 85

Q. Reported growth inhibition for C=CC(C)(C)N1C(=O)C(C(C)=O)=C(O)C1Cc1c[nH]c2ccccc12 (centres undefined) : what is it?
A. 78

Q. Reported growth inhibition for Cc1cccc(C)c1NC(=O)CCC(=O)C(C)C(=O)c1ccc(O)cc1 (centres undefined) : what is it?
A. 0

Q. Reported growth inhibition for CC(C)OC(=O)NNc1cccc(Cl)c1 : what is it?
A. 97

Q. Reported growth inhibition for CC(C)(Br)C(=O)/C=C/c1ccccc1 : what is it?
A. 60

src = PubChem BioAssay (NCI)
